Listing of entries alongside the reported EC50.
- tgt: ERα (Homo sapiens, UniProt P03372)
- Sequence (P03372 whole entry, species assumed): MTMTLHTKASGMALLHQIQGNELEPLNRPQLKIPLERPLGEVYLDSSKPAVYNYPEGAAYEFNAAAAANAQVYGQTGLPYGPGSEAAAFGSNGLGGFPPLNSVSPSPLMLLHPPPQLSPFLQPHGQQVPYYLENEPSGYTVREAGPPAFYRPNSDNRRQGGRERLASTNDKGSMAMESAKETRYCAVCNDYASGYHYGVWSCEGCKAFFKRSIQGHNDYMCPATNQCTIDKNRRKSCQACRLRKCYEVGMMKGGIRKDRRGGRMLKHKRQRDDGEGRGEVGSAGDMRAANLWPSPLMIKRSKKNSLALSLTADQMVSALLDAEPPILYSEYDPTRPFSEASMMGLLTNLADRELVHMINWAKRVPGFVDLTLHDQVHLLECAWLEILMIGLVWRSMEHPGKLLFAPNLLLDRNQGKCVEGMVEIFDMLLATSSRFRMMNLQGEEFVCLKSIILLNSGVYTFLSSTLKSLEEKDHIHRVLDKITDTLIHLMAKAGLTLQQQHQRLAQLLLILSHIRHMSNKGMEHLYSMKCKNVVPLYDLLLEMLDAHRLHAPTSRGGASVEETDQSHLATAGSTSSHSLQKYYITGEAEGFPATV
- test.summary: R-SAT functional assay, ERα
- Assay type: cell-based
- Parameters: expressed in transfected cells; host or cells: NIH-3T3 fibroblasts, transient transfection
- study.conditions: NIH-3T3 cells; na = not active; read-out: R-SAT Erα pEC50 (converted)

smiles.record: Oc1ccc(C2(c3cccc(F)c3Cl)CCCCC2)cc1
tgt: ERα (Homo sapiens, UniProt P03372)
value.unit: nM
EC50: 398
--
smiles.record: Oc1ccc(C2(c3ccccc3Cl)CCCCC2)cc1F
tgt: ERα (Homo sapiens, UniProt P03372)
value.unit: nM
EC50: 631
--
smiles.record: Oc1ccc(C2(c3ccccc3F)CCCCC2)cc1
tgt: ERα (Homo sapiens, UniProt P03372)
value.unit: nM
EC50: 1580
--
smiles.record: Oc1ccc(C2(c3ccccc3Cl)CCC(F)(F)CC2)cc1F
tgt: ERα (Homo sapiens, UniProt P03372)
value.unit: nM
EC50: 100
--
smiles.record: Oc1ccc(C2(c3ccccc3F)CCC(F)(F)CC2)cc1
tgt: ERα (Homo sapiens, UniProt P03372)
value.unit: nM
EC50: 1000
--
smiles.record: Oc1ccc(C2(c3ccccc3F)CCC(F)(F)CC2)cc1F
tgt: ERα (Homo sapiens, UniProt P03372)
value.unit: nM
EC50: 1000
--
smiles.record: Oc1ccc(C2(c3ccccc3Cl)CCCCC2)cc1
tgt: ERα (Homo sapiens, UniProt P03372)
value.unit: nM
EC50: 1260
